Tested on: S. pneumoniae 157E
Experiment: In vitro minimum inhibitory concentration (MIC) assay, S. pneumoniae
Format: cell-based
Set-up: key: Compounds which showed superior inhibition of S. aureus, S. pseumoniae and E. coli are indicated by “***,”; compounds which showed very good or good inhibition of S. aureus, S. pseumoniae and E. coli are indicated by “**” or “*” respectively; compounds which showed very good or good inhibition of S. aureus, S. pseumoniae and E. coli are indicated by “**” or “*” respectively
Conditions: broth microdilution in CAMHB, 35° C., approximately 18 hour
Property Label: Median MIC for S. pneumoniae 157E

Known Median MIC for S. pneumoniae 157E results, listed for orientation:
{"columns": ["Test Smiles", "Median MIC for S. pneumoniae 157E"],
 "data": [
  ["CN(C)c1cc(-c2ncccn2)c(O)c2c1C[C@H]1C[C@H]3[C@H](N(C)C)C(O)=C(C(N)=O)C(=O)[C@@]3(O)C(O)=C1C2=O", "**"],
  ["CCCCNC(=O)c1cc(N(C)C)c2c(c1O)C(=O)C1=C(O)[C@]3(O)C(=O)C(C(N)=O)=C(O)[C@@H](N(C)C)[C@@H]3C[C@@H]1C2", "*"],
  ["CCCN(CC)C(=O)c1cc(N(C)C)c2c(c1O)C(=O)C1=C(O)[C@]3(O)C(=O)C(C(N)=O)=C(O)[C@@H](N(C)C)[C@@H]3C[C@@H]1C2", "*"],
  ["CC(=O)c1cccc(-c2cc(N(C)C)c3c(c2O)C(=O)C2=C(O)[C@]4(O)C(=O)C(C(N)=O)=C(O)[C@@H](N(C)C)[C@@H]4C[C@@H]2C3)c1", "***"],
  ["CCONC(=O)c1cc(N(C)C)c2c(c1O)C(=O)C1=C(O)[C@]3(O)C(=O)C(C(N)=O)=C(O)[C@@H](N(C)C)[C@@H]3C[C@@H]1C2", "***"]
]}

Attention now turns to another entry.
INPUT: Fill blank: measured Median MIC for S. pneumoniae 157E of the compound "CCC(=O)c1cc(N(C)C)c2c(c1O)C(=O)C1=C(O)[C@]3(O)C(=O)C(C(N)=O)=C(O)[C@@H](N(C)C)[C@@H]3C[C@@H]1C2" is ____.
OUTPUT: ***

---

Tested on: S. pneumoniae 157E
Test: In vitro minimum inhibitory concentration (MIC) assay, S. pneumoniae
Format: cell-based
Parameters: key: Compounds which showed superior inhibition of S. aureus, S. pseumoniae and E. coli are indicated by “***,”; compounds which showed very good or good inhibition of S. aureus, S. pseumoniae and E. coli are indicated by “**” or “*” respectively; compounds which showed very good or good inhibition of S. aureus, S. pseumoniae and E. coli are indicated by “**” or “*” respectively
Details: broth microdilution in CAMHB, 35° C., approximately 18 hour

{"columns": ["Test Smiles", "Assay System", "Median MIC for S. pneumoniae 157E"],
 "data": [
  ["CN(C)c1cccc(-c2cc(N(C)C)c3c(c2O)C(=O)C2=C(O)[C@]4(O)C(=O)C(C(N)=O)=C(O)[C@H](N(C)C)[C@@H]4C[C@@H]2C3)c1", "S. pneumoniae 157E", "***"],
  ["COC(=O)CNC(=O)c1cc(N(C)C)c2c(c1O)C(=O)C1=C(O)[C@]3(O)C(=O)C(C(N)=O)=C(O)[C@@H](N(C)C)[C@@H]3C[C@@H]1C2", "S. pneumoniae 157E", "*"],
  ["CN(C)c1cc(-c2ccc(C(=O)O)s2)c(O)c2c1C[C@H]1C[C@H]3[C@H](N(C)C)C(O)=C(C(N)=O)C(=O)[C@@]3(O)C(O)=C1C2=O", "S. pneumoniae 157E", "*"]
]}

---

Assay: in vitro
Assay type: cell-based
Procedure: COS-1 and CHO-K1 cell suspensions were prepared, seeded into 96-well tissue culture treated black-walled microtiter plates (density determined by cell line), and incubated overnight at 37° C., in 5% CO2 and approximately 95% humidity. The following day, serial dilutions of drug were prepared under sterile conditions and transferred to cell plates. Cell/Drug plates were incubated under the above conditions for 24 hours. […] Fluorescence measurements were taken (excitation 535 nm, emission 590 nm). […]
Property Label: IC50 at 24 h

{"columns": ["Test Smiles", "Assay Result"],
 "data": [
  ["CN(C)c1ccc(O)c2c1C[C@H]1C[C@H]3[C@H](N(C)C)C(O)=C(C(N)=O)C(=O)[C@@]3(O)C(O)=C1C2=O", "> 25 µg/mL"]
]}

INPUT: Fill blank: measured IC50 at 24 h of the molecule "C[C@H]1c2cccc(O)c2C(=O)C2=C(O)[C@]3(O)C(=O)C(C(N)=O)=C(O)[C@@H](N(C)C)[C@@H]3[C@@H](O)[C@@H]21" is ____.
OUTPUT: > 25 µg/mL

---

Test system: S. pneumoniae 157E
Test: In vitro minimum inhibitory concentration (MIC) assay, S. pneumoniae
Format: cell-based
Design: key: Compounds which showed superior inhibition of S. aureus, S. pseumoniae and E. coli are indicated by “***,”; compounds which showed very good or good inhibition of S. aureus, S. pseumoniae and E. coli are indicated by “**” or “*” respectively; compounds which showed very good or good inhibition of S. aureus, S. pseumoniae and E. coli are indicated by “**” or “*” respectively
Details: broth microdilution in CAMHB, 35° C., approximately 18 hour
Property Label: Median MIC for S. pneumoniae 157E

Known Median MIC for S. pneumoniae 157E results, listed for orientation:
{"columns": ["Test Smiles", "Assay Result"],
 "data": [
  ["CNC(=O)c1cc(N(C)C)c2c(c1O)C(=O)C1=C(O)[C@]3(O)C(=O)C(C(N)=O)=C(O)[C@@H](N(C)C)[C@@H]3C[C@@H]1C2", "*"],
  ["CN(C)c1cc(C(=O)Nc2ccccc2)c(O)c2c1C[C@H]1C[C@H]3[C@H](N(C)C)C(O)=C(C(N)=O)C(=O)[C@@]3(O)C(O)=C1C2=O", "***"],
  ["CN(C)c1cc(-c2cccnc2)c(O)c2c1C[C@H]1C[C@H]3[C@H](N(C)C)C(O)=C(C(N)=O)C(=O)[C@@]3(O)C(O)=C1C2=O", "**"],
  ["CC(=O)NCCNC(=O)c1cc(N(C)C)c2c(c1O)C(=O)C1=C(O)[C@]3(O)C(=O)C(C(N)=O)=C(O)[C@@H](N(C)C)[C@@H]3C[C@@H]1C2", "*"],
  ["CN(C)c1cc(-c2ccccn2)c(O)c2c1C[C@H]1C[C@H]3[C@H](N(C)C)C(O)=C(C(N)=O)C(=O)[C@@]3(O)C(O)=C1C2=O", "***"]
]}

INPUT: Fill blank: measured Median MIC for S. pneumoniae 157E of the compound "CN(C)c1cc(C(=O)N2CCCC2)c(O)c2c1C[C@H]1C[C@H]3[C@H](N(C)C)C(O)=C(C(N)=O)C(=O)[C@@]3(O)C(O)=C1C2=O" is ____.
OUTPUT: *

INPUT: Same for "CN(C)c1cc(C(=O)C(=O)O)c(O)c2c1C[C@H]1C[C@H]3[C@H](N(C)C)C(O)=C(C(N)=O)C(=O)[C@@]3(O)C(O)=C1C2=O"
OUTPUT: *

INPUT: Same for "CN(C)c1ccc(-c2cc(N(C)C)c3c(c2O)C(=O)C2=C(O)[C@]4(O)C(=O)C(C(N)=O)=C(O)[C@@H](N(C)C)[C@@H]4C[C@@H]2C3)cc1"
OUTPUT: ***

INPUT: Same for "CN(C)c1cc(-c2cncnc2)c(O)c2c1C[C@H]1C[C@H]3[C@H](N(C)C)C(O)=C(C(N)=O)C(=O)[C@@]3(O)C(O)=C1C2=O"
OUTPUT: ***

INPUT: Same for "CN(C)c1cc(C(=O)NO)c(O)c2c1C[C@H]1C[C@H]3[C@H](N(C)C)C(O)=C(C(N)=O)C(=O)[C@@]3(O)C(O)=C1C2=O"
OUTPUT: *

INPUT: Same for "CN(C)c1cc(-c2cnccn2)c(O)c2c1C[C@H]1C[C@H]3[C@H](N(C)C)C(O)=C(C(N)=O)C(=O)[C@@]3(O)C(O)=C1C2=O"
OUTPUT: ***

INPUT: Same for "CN(C)c1cc(-c2cn[nH]c2)c(O)c2c1C[C@H]1C[C@H]3[C@H](N(C)C)C(O)=C(C(N)=O)C(=O)[C@@]3(O)C(O)=C1C2=O"
OUTPUT: *

INPUT: Same for "CN(C)c1cc(-c2cc[nH]n2)c(O)c2c1C[C@H]1C[C@H]3[C@H](N(C)C)C(O)=C(C(N)=O)C(=O)[C@@]3(O)C(O)=C1C2=O"
OUTPUT: **

---

Test system: S. pneumoniae 157E
Assay: In vitro minimum inhibitory concentration (MIC) assay, S. pneumoniae
Assay type: cell-based
Design: key: Compounds which showed superior inhibition of S. aureus, S. pseumoniae and E. coli are indicated by “***,”; compounds which showed very good or good inhibition of S. aureus, S. pseumoniae and E. coli are indicated by “**” or “*” respectively; compounds which showed very good or good inhibition of S. aureus, S. pseumoniae and E. coli are indicated by “**” or “*” respectively
Conditions: broth microdilution in CAMHB, 35° C., approximately 18 hour
Property Label: Median MIC for S. pneumoniae 157E

{"columns": ["Compound", "Property Label", "Assay Result"],
 "data": [
  ["CN(C)c1cc(-c2cccc(C(=O)O)c2)c(O)c2c1C[C@H]1C[C@H]3[C@H](N(C)C)C(O)=C(C(N)=O)C(=O)[C@@]3(O)C(O)=C1C2=O", "Median MIC for S. pneumoniae 157E", "*"],
  ["CN(C)c1cc(C#N)c(O)c2c1C[C@H]1C[C@H]3[C@H](N(C)C)C(O)=C(C(N)=O)C(=O)[C@@]3(O)C(O)=C1C2=O", "Median MIC for S. pneumoniae 157E", "***"],
  ["CN(C)c1cc(C(=O)N2CCCCCC2)c(O)c2c1C[C@H]1C[C@H]3[C@H](N(C)C)C(O)=C(C(N)=O)C(=O)[C@@]3(O)C(O)=C1C2=O", "Median MIC for S. pneumoniae 157E", "*"],
  ["CN(C)c1cc(-c2ccc(C(N)=O)cc2)c(O)c2c1C[C@H]1C[C@H]3[C@H](N(C)C)C(O)=C(C(N)=O)C(=O)[C@@]3(O)C(O)=C1C2=O", "Median MIC for S. pneumoniae 157E", "**"],
  ["CN(C)c1cc(C(=O)NCCN)c(O)c2c1C[C@H]1C[C@H]3[C@H](N(C)C)C(O)=C(C(N)=O)C(=O)[C@@]3(O)C(O)=C1C2=O", "Median MIC for S. pneumoniae 157E", "***"]
]}

INPUT: Fill blank: measured Median MIC for S. pneumoniae 157E of the compound "CN(C)c1cc(-c2ccc(C#N)nc2)c(O)c2c1C[C@H]1C[C@H]3[C@H](N(C)C)C(O)=C(C(N)=O)C(=O)[C@@]3(O)C(O)=C1C2=O" is ____.
OUTPUT: ***

INPUT: Same for CN(C)c1cc(C#N)c(O)c2c1C[C@H]1C[C@H]3[C@@H](N(C)C)C(O)=C(C(N)=O)C(=O)C3(O)C(O)=C1C2=O (some centres unmarked)
OUTPUT: ***

INPUT: Same for "CN(C)c1cc(C(=O)NCC(C)(C)C)c(O)c2c1C[C@H]1C[C@H]3[C@H](N(C)C)C(O)=C(C(N)=O)C(=O)[C@@]3(O)C(O)=C1C2=O"
OUTPUT: **
